- target desc: T1, cynomolgus monkey PCSK9 (cynomolgus monkey, UniProt A8T662 31-692 (Macaca nemestrina entry), limits assumed)
- T1 construct: also called Cyno PCSK9; cynoPCSK9
- T1 sequence (A8T662 31-692 limits assumed): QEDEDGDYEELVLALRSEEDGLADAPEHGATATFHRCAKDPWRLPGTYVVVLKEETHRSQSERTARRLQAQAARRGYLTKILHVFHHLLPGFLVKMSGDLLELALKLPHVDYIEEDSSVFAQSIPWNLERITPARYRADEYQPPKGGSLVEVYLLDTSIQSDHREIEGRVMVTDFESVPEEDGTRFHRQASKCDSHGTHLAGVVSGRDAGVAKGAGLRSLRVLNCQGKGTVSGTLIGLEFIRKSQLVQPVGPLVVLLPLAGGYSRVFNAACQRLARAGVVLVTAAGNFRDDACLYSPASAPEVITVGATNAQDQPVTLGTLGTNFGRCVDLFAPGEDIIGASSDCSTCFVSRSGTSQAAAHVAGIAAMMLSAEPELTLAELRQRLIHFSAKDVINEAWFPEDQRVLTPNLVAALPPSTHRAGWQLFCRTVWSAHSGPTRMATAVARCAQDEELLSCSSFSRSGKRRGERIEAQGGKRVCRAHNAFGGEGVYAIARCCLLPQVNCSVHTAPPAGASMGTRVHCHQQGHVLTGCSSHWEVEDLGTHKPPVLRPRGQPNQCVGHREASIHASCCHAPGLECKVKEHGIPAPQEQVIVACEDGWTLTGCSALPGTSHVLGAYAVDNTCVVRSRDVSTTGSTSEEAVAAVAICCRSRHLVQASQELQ
- experiment notes: ProteOn SPR, captured antibody, pH 7.6;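 further: antibodies captured via anti-human Fc on a GLC sensor chip, PCSK9 binding sensorgrams fitted to a 1:1 Langmuir model giving on and off rates, with KD derived from them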
property name: kon (M⁻¹ s⁻¹)

| binder | property name | experimental result |
| --- | --- | --- |
| CL-148219 (antibody, V domains shown, NLT motif in heavy chain framework 3 confirmed N-glycosylated by mass spectrometry, Human antibody, captured through anti-human Fc in the SPR assay) VH: QVHLQESGPGLVKPSETLSLTCTVSGGSISSYYWSWIRQYPGKGLEWIGYISYSGSSNYNPSLKRRVTISRDTSKNQFSLNLTSVIAADTAVYYCARNLMIRGAYGMDVWGQGTTVTVSS VL: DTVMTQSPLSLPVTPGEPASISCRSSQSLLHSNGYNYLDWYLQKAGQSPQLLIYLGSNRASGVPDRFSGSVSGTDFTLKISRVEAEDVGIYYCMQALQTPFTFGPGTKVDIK | kon | 958000 |
| CL-148489 (antibody, V domains shown, Human antibody with a kappa light chain) VH: EVQLVESGGGLVQPGRSLRLSCTASGFTFADYVMHWVRQTPGKGLEWVSGISWNSYSINYADSVKGRFTISRDNAQNSLYLQMNSLRAEDTALYFCAKDITYDLLTGYNYNYGLDVWGQGTTVTVSS VL: DIVMTQTPLSLSVTPGQPASISCRSSQSLLHSDGKTYLYWYLQKPGQPPQLLIYEVSNRFSGVPDRFSGSGSGTDFTLKISRVEAEDVGLYYCMQSIQLPLTFGGGTKVEIK | kon | 1.13e+06 |
| CL-274698 (antibody, V domains shown, Human antibody with a kappa light chain, derived from a PCSK9 knockout mouse) VH: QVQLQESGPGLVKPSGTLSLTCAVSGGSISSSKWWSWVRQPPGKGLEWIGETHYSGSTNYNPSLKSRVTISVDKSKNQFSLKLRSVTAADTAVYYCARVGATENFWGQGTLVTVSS VL: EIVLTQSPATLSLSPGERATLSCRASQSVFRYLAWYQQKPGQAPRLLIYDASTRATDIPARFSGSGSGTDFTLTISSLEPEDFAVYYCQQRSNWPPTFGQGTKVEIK | kon | 1.1e+06 |
